Recorded Ki, one value per entry.
- target-or-system: NanoLuc-hACKR3 (Homo sapiens, UniProt P25106)
- Construct: membrane preparation)
- Sequence (P25106 whole entry): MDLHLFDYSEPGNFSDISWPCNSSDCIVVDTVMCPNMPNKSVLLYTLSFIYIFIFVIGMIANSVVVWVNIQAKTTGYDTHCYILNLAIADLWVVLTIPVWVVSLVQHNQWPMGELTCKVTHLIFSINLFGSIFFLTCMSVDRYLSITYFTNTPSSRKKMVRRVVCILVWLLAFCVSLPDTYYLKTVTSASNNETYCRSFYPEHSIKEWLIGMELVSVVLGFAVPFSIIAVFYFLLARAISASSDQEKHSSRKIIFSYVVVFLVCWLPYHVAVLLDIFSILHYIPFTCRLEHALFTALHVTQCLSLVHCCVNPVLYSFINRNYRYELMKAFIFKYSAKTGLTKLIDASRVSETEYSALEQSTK
- assay-explanation: NanoBRET binding study (displacement of fluorescently labelled CXCL12)
- experimental-context: displacement of 0.3 nM CXCL12-AF647; membranes of HEK293T cells expressing NanoLuc-ACKR3; 1 hour incubation; read-out: Affinity
Counter-ions that a name gives are not always drawn.

See these solved cases before continuing.
O=C(NCC1CCN(C2CCCCC2)CC1)c1cc(-c2ccc(F)cc2F)on1 [Molecule 1, HCl]	≤ 100 nM
O=C(NCC1CCN(C/C=C/c2ccccc2)CC1)c1cc(-c2ccc(F)cc2F)no1 [Molecule 92]	≤ 100 nM
O=C(NCC1CCN(C2CCCCCC2)CC1)c1cc(-c2ccc(F)cc2F)on1 [Molecule 20]	100 to 1000 nM

Here is another molecule to look at.
Request: Check the records and state Ki for O=C(NCC1CCN(C/C=C/c2ccccc2)CC1)c1cc(-c2ccc(F)cc2F)n[nH]1 [Molecule 58]
Response: 1000 to 10000 nM
